Values were extracted from patent US12358896B2.

Test: Metabolic stability in human liver microsomes (Biological Example 2)
Type: in vitro ADME
Conditions: hepatic clearance (CLhep) scaled from human liver microsomes, 1 μM, well-stirred model
PARAMETER MEASURED: HLM Avg (mL/min/kg)

[
  {
    "COMPOUND": "CCNc1nc(Nc2cn([C@H]3C[C@H]3C(N)=O)nc2C2CC2)ncc1C(F)(F)F (single isomer, unassigned)",
    "HLM Avg, mL/min/kg": 3.6
  },
  {
    "COMPOUND": "Cc1nn(C2C[C@]2(C)C(N)=O)cc1Nc1ncc(C(F)(F)F)c(NC2(C)CC2)n1 (single isomer, unassigned)",
    "HLM Avg, mL/min/kg": 8.9
  }
]

(A) CCNc1nc(Nc2cn([C@@H]3C[C@]3(C)C(N)=O)nc2C2CC2)ncc1C(F)(F)F (single isomer, unassigned)
(B) CCNc1nc(Nc2cc([C@H]3C[C@H]3C(N)=O)nn2C2CC2)ncc1C(F)(F)F [Comparative Example A, reference compound]
(C) Cc1nn(C2C[C@@]2(C)C(N)=O)cc1Nc1ncc(C(F)(F)F)c(NC2(C)CC2)n1 (single isomer, unassigned)
Problem: Hey, quick one: sort these by HLM Avg, largest value first please. Return the labels ranked in the requested order, please.
Solution: A, C, B
(A: 11 mL/min/kg, C: 6.4 mL/min/kg, B: 2.6 mL/min/kg)

* * *

Target: FLAG-tagged human LRRK2 with G2019S mutation (Homo sapiens, UniProt Q5S007, G2019S)
Sequence (Q5S007 whole entry G2019S): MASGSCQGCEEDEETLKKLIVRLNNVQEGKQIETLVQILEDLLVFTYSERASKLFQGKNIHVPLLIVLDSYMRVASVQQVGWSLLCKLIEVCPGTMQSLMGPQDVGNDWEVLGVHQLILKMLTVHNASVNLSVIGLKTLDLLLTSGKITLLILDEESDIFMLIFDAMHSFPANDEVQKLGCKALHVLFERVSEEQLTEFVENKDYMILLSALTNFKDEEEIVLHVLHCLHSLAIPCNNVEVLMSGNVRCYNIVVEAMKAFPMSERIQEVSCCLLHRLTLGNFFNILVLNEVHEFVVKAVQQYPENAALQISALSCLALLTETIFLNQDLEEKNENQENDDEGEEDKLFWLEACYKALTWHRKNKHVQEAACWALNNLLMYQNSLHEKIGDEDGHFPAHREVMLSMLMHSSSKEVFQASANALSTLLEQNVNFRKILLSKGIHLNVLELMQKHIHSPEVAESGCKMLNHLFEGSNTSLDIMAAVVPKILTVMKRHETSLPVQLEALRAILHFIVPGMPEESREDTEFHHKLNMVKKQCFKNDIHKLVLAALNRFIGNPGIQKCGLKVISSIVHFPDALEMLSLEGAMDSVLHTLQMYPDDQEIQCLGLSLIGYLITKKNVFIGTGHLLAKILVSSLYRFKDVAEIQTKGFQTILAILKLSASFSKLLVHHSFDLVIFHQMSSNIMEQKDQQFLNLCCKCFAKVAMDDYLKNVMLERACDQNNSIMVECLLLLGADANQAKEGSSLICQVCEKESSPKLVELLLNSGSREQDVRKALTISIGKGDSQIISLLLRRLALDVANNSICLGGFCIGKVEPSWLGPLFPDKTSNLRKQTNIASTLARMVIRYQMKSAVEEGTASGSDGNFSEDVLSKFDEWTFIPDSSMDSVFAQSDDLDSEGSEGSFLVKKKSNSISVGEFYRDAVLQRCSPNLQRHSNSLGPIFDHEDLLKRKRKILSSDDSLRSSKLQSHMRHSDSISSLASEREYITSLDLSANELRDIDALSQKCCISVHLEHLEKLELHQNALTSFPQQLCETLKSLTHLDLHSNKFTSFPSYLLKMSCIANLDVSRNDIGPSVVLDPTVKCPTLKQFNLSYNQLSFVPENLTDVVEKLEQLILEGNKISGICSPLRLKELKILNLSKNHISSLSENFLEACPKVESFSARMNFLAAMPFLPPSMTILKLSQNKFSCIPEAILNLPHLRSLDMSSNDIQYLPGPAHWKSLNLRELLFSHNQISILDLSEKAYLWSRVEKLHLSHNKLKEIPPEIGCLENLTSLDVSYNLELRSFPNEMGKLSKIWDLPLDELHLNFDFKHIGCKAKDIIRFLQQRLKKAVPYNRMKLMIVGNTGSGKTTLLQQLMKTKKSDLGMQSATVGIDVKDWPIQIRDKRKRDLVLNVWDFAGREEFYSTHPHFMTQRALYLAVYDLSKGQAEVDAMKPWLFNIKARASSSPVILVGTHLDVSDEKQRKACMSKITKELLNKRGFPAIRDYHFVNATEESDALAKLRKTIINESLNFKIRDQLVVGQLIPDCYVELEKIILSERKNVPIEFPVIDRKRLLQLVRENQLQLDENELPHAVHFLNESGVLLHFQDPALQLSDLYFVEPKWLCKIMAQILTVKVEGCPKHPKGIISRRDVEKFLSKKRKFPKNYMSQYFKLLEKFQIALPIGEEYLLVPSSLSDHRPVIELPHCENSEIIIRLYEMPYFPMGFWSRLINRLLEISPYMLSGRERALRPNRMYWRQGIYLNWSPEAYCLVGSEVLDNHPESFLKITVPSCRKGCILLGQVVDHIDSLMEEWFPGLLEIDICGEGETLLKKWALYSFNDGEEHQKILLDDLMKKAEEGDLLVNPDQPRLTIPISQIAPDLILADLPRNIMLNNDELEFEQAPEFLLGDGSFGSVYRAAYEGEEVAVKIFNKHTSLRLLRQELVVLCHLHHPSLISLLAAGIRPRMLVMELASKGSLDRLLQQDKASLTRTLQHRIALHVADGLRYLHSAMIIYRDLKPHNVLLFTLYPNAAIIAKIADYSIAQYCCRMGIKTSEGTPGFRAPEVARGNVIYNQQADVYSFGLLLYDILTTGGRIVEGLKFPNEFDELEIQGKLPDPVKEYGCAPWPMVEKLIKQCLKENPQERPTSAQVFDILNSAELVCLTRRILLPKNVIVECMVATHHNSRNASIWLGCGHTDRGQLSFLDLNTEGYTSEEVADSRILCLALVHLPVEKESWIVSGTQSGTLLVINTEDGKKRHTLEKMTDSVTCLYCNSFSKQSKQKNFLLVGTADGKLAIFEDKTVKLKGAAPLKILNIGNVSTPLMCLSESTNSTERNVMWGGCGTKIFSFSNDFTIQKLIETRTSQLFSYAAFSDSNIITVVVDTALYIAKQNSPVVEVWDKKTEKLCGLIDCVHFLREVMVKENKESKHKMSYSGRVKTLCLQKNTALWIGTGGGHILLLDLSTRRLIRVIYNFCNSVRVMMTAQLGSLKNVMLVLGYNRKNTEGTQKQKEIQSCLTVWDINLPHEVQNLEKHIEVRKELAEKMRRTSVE
Assay: Inhibition of pSer935 in HEK293 cells with expressed G2019S LRRK2 (Biological Example 4)
Details: transfected 293T cells, 90 minutes compound treatment, MSD readout; read-out: HEK293T LRRK2 G2019S pS935
PARAMETER MEASURED: IC50 (nM)

(1) CCNc1nc(Nc2cn(C3C[C@@]3(C)C(N)=O)nc2C)ncc1Br (single isomer, unassigned)
(2) Cc1nn(C2C[C@]2(C)C(N)=O)cc1Nc1ncc(C(F)(F)F)c(NC2CC2)n1 (single isomer, unassigned)
Problem: Select one. Lower IC50: 1 or 2 Return value: the label identifying the chosen record.
Solution: 2
(2: 5.79 nM, 1: 10.5 nM)

* * *

Molecular target: LRRK2 G2019S enzyme (Homo sapiens, UniProt Q5S007, G2019S)
Sequence (Q5S007 whole entry G2019S): as above
Assay: LRRK2 G2019S TR-FRET biochemical assay (Biological Example 1)
Conditions: 134 μM ATP, 5 nM LRRK2, LRRKtide substrate
pIC50: −log10 of the molar value.
PARAMETER MEASURED: pIC50

[
  {
    "COMPOUND": "Cc1nn(C2C[C@@]2(C)C(N)=O)cc1Nc1ncc(C(F)(F)F)c(NC2(C)CC2)n1 (single isomer, unassigned) [Example 1]",
    "pIC50": 8.99
  }
]

(P) CNc1nc(Nc2cn([C@@H]3C[C@@H]3C(N)=O)nc2C2CC2)ncc1C(F)(F)F (single isomer, unassigned) [Example 2]
(Q) CCNc1nc(Nc2cn([C@@H]3C[C@]3(C)C(N)=O)nc2C2CC2)ncc1C(F)(F)F (single isomer, unassigned) [Example 5]
Problem: Among P and Q , which shows a numerically higher pIC50 result? Return value: the label identifying the chosen record.
Solution: Q

(A) CCNc1nc(Nc2cn(C3C[C@@]3(C)C(N)=O)nc2C)ncc1Br (single isomer, unassigned) [Example 3]
(B) Cc1nn(C2C[C@]2(C)C(N)=O)cc1Nc1ncc(C(F)(F)F)c(NC2CC2)n1 (single isomer, unassigned) [Example 6]
Problem: Among A and B , which shows a numerically higher pIC50 result? Return value: the label identifying the chosen record.
Solution: B
